- METHOD: Gelling of water-immiscible cosmetic liquids in 96 well glass micro-titre plate
- Assay type: physicochemical
- Design: key: gel; g4: gel after overnight (18 hrs) storage at 4° C.; g22: gel after overnight (18 hrs) storage at 22° C.; sg: soft gel; sg22: soft gel after overnight (18 hrs) storage at 22° C.; solution; *: the test at 4° C. was not carried out
- TEST PARAMETERS: 10% cellobiose ester in Mineral oil
PROPERTY: gelling of Mineral oil

>>> assay_value("CCCCCCCCC(=O)OCC1OC(OC2C(COC(=O)CCCCCCCC)OC(OC(=O)CCC)C(OC(=O)CCCCCCCC)C2OC(=O)CCCCCCCC)C(OC(=O)CCCCCCCC)C(OC(=O)CCCCCCCC)C1OC(=O)CCCCCCCC (mixture of isomers) [Ex 1.18]")
"gel"
>>> assay_value("CCCCCCCCC(=O)OCC1OC(OC2C(COC(=O)CCCCCCCC)OC(OC(=O)c3ccc4ccccc4c3)C(OC(=O)CCCCCCCC)C2OC(=O)CCCCCCCC)C(OC(=O)CCCCCCCC)C(OC(=O)CCCCCCCC)C1OC(=O)CCCCCCCC (mixture of isomers) [Ex 1.4]")
"g22"
>>> assay_value("CCCCCCCCC(=O)OCC1OC(OC2C(COC(=O)CCCCCCCC)OC(OC(=O)c3ccccc3)C(OC(=O)CCCCCCCC)C2OC(=O)CCCCCCCC)C(OC(=O)CCCCCCCC)C(OC(=O)CCCCCCCC)C1OC(=O)CCCCCCCC (mixture of isomers) [Ex 1.2]")
"gel"
>>> assay_value("CCCCCCCCC(=O)OCC1OC(OC2C(COC(=O)CCCCCCCC)OC(OC(=O)c3ccc(-c4ccccc4)cc3)C(OC(=O)CCCCCCCC)C2OC(=O)CCCCCCCC)C(OC(=O)CCCCCCCC)C(OC(=O)CCCCCCCC)C1OC(=O)CCCCCCCC (mixture of isomers) [Ex 1.15]")
"gel"
>>> assay_value("CCCCCCCCCC(=O)OCC1OC(OC2C(COC(=O)CCCCCCCCC)OC(OC(=O)c3ccccc3)C(OC(=O)CCCCCCCCC)C2OC(=O)CCCCCCCCC)C(OC(=O)CCCCCCCCC)C(OC(=O)CCCCCCCCC)C1OC(=O)CCCCCCCCC (mixture of isomers) [Ex 2.2]")
"gel"
>>> assay_value("CCCCCCCCCCCCCCCC(=O)OC1OC(COC(=O)CCCCCCCCC)C(OC2OC(COC(=O)CCCCCCCCC)C(OC(=O)CCCCCCCCC)C(OC(=O)CCCCCCCCC)C2OC(=O)CCCCCCCCC)C(OC(=O)CCCCCCCCC)C1OC(=O)CCCCCCCCC (mixture of isomers) [Ex 2.13]")
"gel"

QUERY: Supply measured gelling of Mineral oil of CCCCCCCCCC(=O)OCC1OC(OC2C(COC(=O)CCCCCCCCC)OC(OC(=O)c3ccc(-c4ccccc4)cc3)C(OC(=O)CCCCCCCCC)C2OC(=O)CCCCCCCCC)C(OC(=O)CCCCCCCCC)C(OC(=O)CCCCCCCCC)C1OC(=O)CCCCCCCCC (mixture of isomers) [Ex 2.9] in your reply.
RESULT: gel

====

- METHOD: Visual assessment score (clarity of gel in 1 cm cuvette)
- Format: physicochemical
- TEST PARAMETERS: 9% REF4 plus 1% of the named material in 60:40 hydrogenated polydecene:DC245
PROPERTY: Clarity Visual (appearance)

>>> assay_value("CCCCCCCCCC(=O)OCC1OC(OC2C(COC(=O)CCCCCCCCC)OC(OC(=O)c3ccccc3)C(OC(=O)CCCCCCCCC)C2OC(=O)CCCCCCCCC)C(OC(=O)CCCCCCCCC)C(OC(=O)CCCCCCCCC)C1OC(=O)CCCCCCCCC (mixture of isomers) [Ex 2.6]")
"translucent"
>>> assay_value("CCCCCCCCCC(=O)OCC1OC(OC2C(COC(=O)CCCCCCCCC)OC(OC(=O)c3ccc(-c4ccccc4)cc3)C(OC(=O)CCCCCCCCC)C2OC(=O)CCCCCCCCC)C(OC(=O)CCCCCCCCC)C(OC(=O)CCCCCCCCC)C1OC(=O)CCCCCCCCC (mixture of isomers)")
"translucent"
>>> assay_value("CCCCCCCCCC(=O)OCC1OC(OC2C(COC(=O)CCCCCCCCC)OC(OC(=O)c3ccccc3)C(OC(=O)CCCCCCCCC)C2OC(=O)CCCCCCCCC)C(OC(=O)CCCCCCCCC)C(OC(=O)CCCCCCCCC)C1OC(=O)CCCCCCCCC (mixture of isomers) [Ex 2.1]")
"translucent"
